- target_of_assay: Serine/threonine-protein kinase Sgk3 (Homo sapiens) (UniProt Q96BR1);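 further: reported percentages are averaged inhibition values against SGK3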
- Sequence (Q96BR1 whole entry): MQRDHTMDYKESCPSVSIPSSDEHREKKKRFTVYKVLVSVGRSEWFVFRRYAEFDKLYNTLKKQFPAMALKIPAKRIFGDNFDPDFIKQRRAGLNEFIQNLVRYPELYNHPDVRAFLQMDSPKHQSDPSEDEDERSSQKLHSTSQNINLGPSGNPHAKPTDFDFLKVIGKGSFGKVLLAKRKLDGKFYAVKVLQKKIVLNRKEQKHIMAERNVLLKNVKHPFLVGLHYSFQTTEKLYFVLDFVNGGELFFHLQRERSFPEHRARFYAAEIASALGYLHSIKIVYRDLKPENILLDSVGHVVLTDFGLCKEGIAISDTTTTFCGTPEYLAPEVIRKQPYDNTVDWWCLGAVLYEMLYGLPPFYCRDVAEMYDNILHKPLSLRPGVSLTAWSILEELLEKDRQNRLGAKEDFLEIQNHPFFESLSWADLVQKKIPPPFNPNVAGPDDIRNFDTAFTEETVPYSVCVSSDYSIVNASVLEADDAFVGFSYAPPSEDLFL
- test_context: at 0.1 µM
Here the recorded inhibition is given for each entry.
State the answer as a number, implicitly in %.

Example entries and their recorded answers appear below.
>  <compound>
Fc1ccc(-c2nc3n(c2-c2ccncc2)CCS3)cc1

>  <units_label>
%

>  <inhibition>
1.96

$$$$
>  <compound>
c1ccc(Oc2ccc(Nc3ncc(-c4ccccc4)o3)cc2)cc1

>  <units_label>
%

>  <inhibition>
3.61

$$$$
>  <compound>
CCc1nccc2c1nc(-c1nonc1N)n2CC

>  <units_label>
%

>  <inhibition>
2.62

$$$$
>  <compound>
COC(=O)Nc1nc2ccc(Sc3ccc(NC(=O)Nc4cc(C(F)(F)F)ccc4F)cc3)cc2[nH]1

>  <units_label>
%

>  <inhibition>
-0.29

$$$$

Fill in the blank: the reported inhibition of Cc1nnc(-c2ccc(C)c(-c3ccc(C(=O)NCc4ccc(Cl)cc4)cc3)c2)o1 is ____. 1.38

I would be grateful if you could share the reported inhibition for C#Cc1cccc(Nc2ncnc3ccc(OCCCCNCCS(C)(=O)=O)cc23)c1 . 3.82

// returns reported inhibition for input O=C(Nc1n[nH]c2cc(-c3cc(F)ccc3F)ccc12)C1CC1 2.01

I am curious: what inhibition value has been reported for Clc1ccc(CNc2nccc(-c3cnn4ncccc34)n2)cc1 ? 0.59

Returns the measured inhibition for the input compound. Input: COc1ccc(C2=C(N3CCc4ccccc43)C(=O)NC2=O)cc1 4.38

Data request, read-out inhibition, for COc1cc(N2CCN(C(C)C)CC2)ccc1Nc1nc(Nc2ccc(F)cc2C(=O)NC[C@@H](O)CO)c2cc[nH]c2n1 2.59

Which inhibition reading was recorded for the compound COc1ccc2cc(-c3c(-c4ccncc4)nc(-c4ccc([S+](C)[O-])cc4C)n3C)ccc2c1 (stereo not drawn) ? -0.05

Requested field: inhibition. Item: COc1cc(Nc2ncc3c(C)nc(-c4cccc(C(F)(F)F)c4)n3n2)cc(OC)c1OC 5.08

Any idea what inhibition was measured for Cc1ccc(NC(=O)c2ccoc2)cc1-c1ccc(C(=O)NCC2CC2)cc1 ? 7.71
